protocol: anti-His antibody binders, primary screen, artefact control for SMM control protein annotation, biochemical, small-molecule microarray, 635 nm fluorescence (AID 1128);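 further: score merges feature fluorescence with signal-to-noise for each printed compound spot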
experimental-conditions: anti-His Alexa647 antibody binding, higher = more signal
Provide the reported composite z-score of each item.
Reply: number alone, nothing else.

Query: Look up and report measured composite z-score for this entry: C[C@]1(C(=O)NCc2ccccc2)c2ccccc2C(=O)N(Cc2ccc(OC(F)(F)F)cc2)[C@H]1c1ccc(CO)cc1
Result: 1.71

Query: Given the compound O=C/C=C/c1ccc2c(c1)OCO2 , write its reported composite z-score.
Result: 1.33

Query: Item CC(C)N1C(=O)c2ccccc2[C@@H](C(=O)NCCCN(C)C)[C@@H]1c1ccc(CO)cc1 : provide composite z-score
Result: 0.0674

Query: Indicate its recorded composite z-score; the compound in question is [N-]=[N+]=NCc1ccccc1C[C@]1(C(=O)O)N=C(c2ccc(OCCCO)cc2)O[C@H]1c1ccccc1CN=[N+]=[N-]
Result: 1.25

Query: Please look at this compound and report its composite z-score: CC(C)CNC(=O)[C@@H]1c2ccccc2C(=O)N(Cc2cc(C(F)(F)F)cc(C(F)(F)F)c2)[C@H]1c1ccc(CO)cc1
Result: -0.137

Query: Note down composite z-score recorded for CCOC(=O)C[C@H]1[C@H](OC(=O)c2ccc(-c3ccccc3)cc2)[C@@H](NC(=O)c2ccc(-c3ccccc3)cc2)c2cc(OCCCO)ccc2N1C(=O)Cc1ccc(OC)cc1
Result: 0.296

Query: Recall and state the measured composite z-score for COC(=O)[C@@]1(Cc2ccc(OC)cc2)[C@H]2c3cc(C(=O)N4CCCC4)n(CCc4c[nH]c5cc(F)ccc45)c3C[C@H]2CN1C(=O)c1ccccc1 .
Result: 1.46

Query: Report composite z-score, nothing else, for this compound: CC(C)c1ccc(NN2C(C(O)c3c(F)cccc3Cl)C=CC3C(=O)N(c4ccccc4)C(=O)C32)cc1 (stereo unspecified)
Result: 0.825

Query: Provide measured composite z-score value, entry: CC(C)=CCCC(C)=CC(O)C1C=CC2C(=O)N(c3ccccc3)C(=O)C2N1Nc1ccccc1 (stereo unspecified)
Result: 1.79

Query: Specify reported composite z-score for the compound shown: Cc1ccccc1C(O)C1C=CC2C(=O)N(C)C(=O)C2N1Nc1ccccc1 (stereo unspecified)
Result: 1.23

Query: # return recorded composite z-score for input CCOC(=O)C[C@H]1[C@H](OC(=O)Cc2ccc3c(c2)OCO3)[C@@H](NC(=O)c2ccc(-c3ccccc3)cc2)c2cc(OCCCO)ccc2N1C(=O)c1ccccc1
Result: 0.18

Query: Find the measured composite z-score of Cc1cc(C)c(C(O)C2C=CC3C(=O)N(C)C(=O)C3N2Nc2ccccc2)c(C)c1 (stereo unspecified) and report it.
Result: 1.83

Query: State, in one line, measured composite z-score of O=C1C=CC(=O)[C@@H]2CC(COc3ccccc3)=C3[C@@H](CCc4ccccc4)OB(O)C[C@@H]3[C@H]12
Result: 0.346

Query: Write down composite z-score measured for item C=CC(=C)C1=CCO[C@@H]1[C@H]1CCCN1S(=O)(=O)c1ccccc1[N+](=O)[O-]
Result: 0.2

Query: Look up and report measured composite z-score for this entry: COc1ccc(C(O)C2C=CC3C(=O)N(c4ccccc4)C(=O)C3N2Nc2ccc([N+](=O)[O-])cc2)cc1OCc1ccccc1 (stereo unspecified)
Result: 1.71

Query: Tell me its composite z-score given COc1cccc(C(=O)O[C@H]2CC[C@]3(C)C4=C(CCC3C2(C)C)[C@]2(C)CC[C@H]([C@H](C)CCCC(C)C)[C@@]2(C)CC4)c1 (stereo partly specified) as the entry.
Result: 0.0291
